Target: EPSPase
Assay: Ex-vivo EPSPase activity assay, crude extract
Details: logistic regression; read-out: ED50 for the EPSPase activity
Procedure: 0.5 g of the seedlings of Ophiopogon japonicus, Liriope spicata, Liriope platyphylla and wide-type Arabidopsis thaliana were weighed, added with 150 ml of an extraction buffer A [containing 100 mmol/L Tris pH 7.5, 1 mmol/L EDTA, 10% (V/V) glycerol, 1 mg/L BSA, 10 mmol/L Vitamin C (Vc), 1 mmol/L benzamidine, 5 mmol/L DTT, and 20 mg/ml PVPP], ground and homogenized, filtered through 6 layers of gauze, and centrifuged at 12000 rpm and 4° C. […]
Outcome measure: EC50 (µM)
Write it as a number; the unit µM goes unstated.

Q. Output EC50 of O=C(O)CNCP(=O)(O)O [glyphosate, N-(phosphonomethyl)glycine]
A. 560
